Target: LRRK2 Ser935 phosphorylation in SH-SY5Y cells over-expressing recombinant full length LRRK2 (Homo sapiens, UniProt Q5S007)
Construct: A BacMam virus expressing full length recombinant LRRK2 was purchased from Invitrogen; host or cells: SH-SY5Y human neuroblastoma cells transduced with BacMam LRRK2 virus
Sequence (Q5S007 whole entry): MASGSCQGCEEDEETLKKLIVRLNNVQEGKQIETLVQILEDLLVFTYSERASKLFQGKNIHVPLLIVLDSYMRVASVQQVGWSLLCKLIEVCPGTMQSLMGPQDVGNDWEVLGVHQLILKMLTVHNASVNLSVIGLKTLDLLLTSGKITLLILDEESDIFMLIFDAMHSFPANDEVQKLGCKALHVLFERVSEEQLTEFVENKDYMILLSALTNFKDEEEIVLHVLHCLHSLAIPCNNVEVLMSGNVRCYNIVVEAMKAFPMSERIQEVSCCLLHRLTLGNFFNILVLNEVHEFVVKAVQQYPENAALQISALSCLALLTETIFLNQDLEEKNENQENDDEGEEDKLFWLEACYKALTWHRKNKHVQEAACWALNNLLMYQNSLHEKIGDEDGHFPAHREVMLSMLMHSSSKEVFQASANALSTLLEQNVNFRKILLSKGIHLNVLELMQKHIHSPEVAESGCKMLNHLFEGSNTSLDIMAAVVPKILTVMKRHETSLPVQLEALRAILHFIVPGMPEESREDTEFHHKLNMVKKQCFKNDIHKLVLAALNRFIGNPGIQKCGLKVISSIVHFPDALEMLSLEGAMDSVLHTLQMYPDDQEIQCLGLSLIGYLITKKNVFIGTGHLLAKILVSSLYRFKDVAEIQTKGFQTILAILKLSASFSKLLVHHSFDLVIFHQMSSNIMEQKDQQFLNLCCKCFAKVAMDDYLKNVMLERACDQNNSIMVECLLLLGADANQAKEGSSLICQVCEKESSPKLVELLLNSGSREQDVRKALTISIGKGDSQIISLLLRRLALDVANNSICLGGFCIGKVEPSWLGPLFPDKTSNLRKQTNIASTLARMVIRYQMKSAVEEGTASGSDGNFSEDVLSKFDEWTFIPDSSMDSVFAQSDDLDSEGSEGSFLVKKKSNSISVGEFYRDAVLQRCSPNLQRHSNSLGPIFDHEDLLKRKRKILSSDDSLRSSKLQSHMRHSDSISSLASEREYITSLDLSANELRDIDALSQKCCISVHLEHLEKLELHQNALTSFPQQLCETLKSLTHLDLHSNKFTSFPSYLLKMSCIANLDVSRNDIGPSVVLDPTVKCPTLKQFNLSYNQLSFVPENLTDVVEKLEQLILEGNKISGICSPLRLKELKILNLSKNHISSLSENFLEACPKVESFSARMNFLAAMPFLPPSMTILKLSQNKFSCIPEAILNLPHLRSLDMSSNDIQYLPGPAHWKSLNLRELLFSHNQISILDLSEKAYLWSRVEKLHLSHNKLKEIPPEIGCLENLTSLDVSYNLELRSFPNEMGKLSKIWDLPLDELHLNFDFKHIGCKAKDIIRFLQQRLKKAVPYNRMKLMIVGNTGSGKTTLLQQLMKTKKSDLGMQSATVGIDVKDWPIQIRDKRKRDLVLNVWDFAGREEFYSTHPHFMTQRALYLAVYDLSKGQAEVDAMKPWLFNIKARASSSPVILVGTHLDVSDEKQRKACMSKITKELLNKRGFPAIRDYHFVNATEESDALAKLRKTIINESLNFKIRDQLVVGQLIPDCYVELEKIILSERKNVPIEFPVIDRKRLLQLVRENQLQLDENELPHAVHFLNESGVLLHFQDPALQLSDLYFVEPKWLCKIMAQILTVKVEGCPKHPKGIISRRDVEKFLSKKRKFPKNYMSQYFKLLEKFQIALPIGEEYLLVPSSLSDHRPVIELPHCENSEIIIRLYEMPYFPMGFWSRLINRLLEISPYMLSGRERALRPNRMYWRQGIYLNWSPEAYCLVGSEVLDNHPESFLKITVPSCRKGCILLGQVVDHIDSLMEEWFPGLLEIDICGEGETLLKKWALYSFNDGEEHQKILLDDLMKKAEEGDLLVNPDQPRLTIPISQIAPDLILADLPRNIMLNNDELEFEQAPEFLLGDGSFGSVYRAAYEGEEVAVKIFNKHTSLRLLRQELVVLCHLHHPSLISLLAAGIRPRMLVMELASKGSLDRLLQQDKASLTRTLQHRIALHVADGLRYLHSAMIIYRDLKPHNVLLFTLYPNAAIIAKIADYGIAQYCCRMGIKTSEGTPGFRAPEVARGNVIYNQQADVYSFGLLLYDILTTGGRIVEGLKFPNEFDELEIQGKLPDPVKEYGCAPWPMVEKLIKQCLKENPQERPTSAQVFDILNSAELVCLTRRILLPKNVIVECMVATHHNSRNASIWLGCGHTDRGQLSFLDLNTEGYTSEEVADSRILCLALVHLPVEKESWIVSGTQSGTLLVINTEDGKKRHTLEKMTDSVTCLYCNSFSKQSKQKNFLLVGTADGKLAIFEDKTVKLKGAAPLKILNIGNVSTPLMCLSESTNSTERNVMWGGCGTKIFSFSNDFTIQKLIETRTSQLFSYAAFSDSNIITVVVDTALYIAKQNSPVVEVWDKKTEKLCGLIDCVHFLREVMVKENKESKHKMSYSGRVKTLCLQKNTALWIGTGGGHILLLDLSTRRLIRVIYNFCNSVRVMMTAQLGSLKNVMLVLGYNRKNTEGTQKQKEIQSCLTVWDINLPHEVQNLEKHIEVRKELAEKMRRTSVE
Assay: Recombinant cellular LRRK2 AlphaScreen assay
Type: cell-based
Details: human neuroblastoma SH-SY5Y cells, BacMam full length LRRK2, 60 minutes with compound, read-out: pIC50 in the recombinant cellular LRRK2 AlphaScreen assay (converted)
IC50 values by entry

Use these answered entries as a reference point.
Cc1nc(N2CC3CC(C2)C3C(=O)O)cc(-n2ncc3cc(C)c(C4CCOCC4)cc32)n1 (centres unmarked) [Example E80] ... ≤ 1 µM
Cc1nc(N2C[C@H]3C[C@@H]2CO3)cc(-n2ncc3cc(Cl)c(N4CCC(C)(O)CC4)cc32)n1 [Example E34] ... ≤ 1 µM
COc1nc(N2C[C@@H]3C[C@H]2CO3)cc(-n2ncc3cc(C)c(C4CCNCC4)cc32)n1 [Example E59] ... ≤ 1 µM
COCCN1CCC(c2cc3c(cnn3-c3cc(N4C[C@@H]5C[C@H]4CO5)nc(OC)n3)cc2C)CC1 [Example E36] ... ≤ 1 µM
Cc1nc(N2C[C@H]3C[C@@H]2CO3)cc(-n2ncc3cc(C)c(C4C5CN(C6CCOC6)CC54)cc32)n1 (some centres unmarked) [Example E179] ... ≤ 1 µM
Cc1nc(N2C[C@H]3C[C@@H]2CO3)cc(-n2ncc3cc(C)c(C4CCN(CCC(=O)O)CC4F)cc32)n1 (single isomer, unassigned) [Example E155] ... ≤ 1 µM
Cc1nc(N2C[C@H]3C[C@@H]2CN3C2COC2)cc(-n2ncc3cc(C)c([C@H]4CC[C@@](C)(O)CC4)cc32)n1 [Example E29] ... ≤ 1 µM
Cc1nc(N2C[C@@H]3C[C@H]2CO3)cc(-n2ncc3cc(C)c(C4CCN(C5COC5)CC4)cc32)n1 [Example E40] ... ≤ 1 µM
Cc1nc(N2C[C@H]3C[C@@H]2CO3)cc(-n2ncc3cc(C)c(C4CCN(C5COC5)CC4(C)O)cc32)n1 (single isomer, unassigned) [Example E147] ... ≤ 1 µM
COc1nc(N2CC3CCC2CO3)cc(-n2ncc3cc(C)c(C4CCN(C5CCOC5)CC4)cc32)n1 (single isomer, unassigned) [Example E64] ... ≤ 1 µM

Returns the measured IC50 for the input compound. Input: Cc1nc(N2C[C@@H]3C[C@H]2CO3)cc(-n2ncc3cc(C)c([C@H]4CC[C@](C)(O)CC4)cc32)n1 [Example E8]
≤ 1 µM

Any idea what its IC50 is? The compound is Cc1nc(N2CC3CC2CC3C(=O)O)cc(-n2ncc3cc(C)c(C4CCC(C)(O)CC4)cc32)n1 (single isomer, unassigned) [Example E75]
≤ 0.01 µM

Data request, read-out IC50, for Cc1nc(N2C[C@@H]3C[C@H]2CO3)cc(-n2ncc3cc(C)c(C4CCN(CCC(=O)O)CC4F)cc32)n1 (single isomer, unassigned) [Example E157]
≤ 1 µM

Look up IC50 for this compound: COc1nc(N2C[C@@]3(CO)C[C@@H]2CO3)cc(-n2ncc3cc(C)c(C4CCOCC4)cc32)n1 [Example E178]
≤ 0.01 µM

Given Cc1nc(N2C[C@H]3C[C@@H]2CO3)cc(-n2ncc3cc(C)c(C4CCN(CCC(=O)O)CC4)cc32)n1 [Example E162] , state its recorded IC50.
≤ 1 µM

Request the reported IC50 associated with COc1nc(N2C[C@@H]3C[C@H]2CO3)cc(-n2ncc3cc(C)c(C4CCN(CCC(=O)O)CC4F)cc32)n1 (single isomer, unassigned) [Example E160]
≤ 0.01 µM

Given the entry Cc1nc(N2C[C@H]3C[C@@H]2CO3)cc(-n2ncc3cc(C)c(C4CCN(CCO)CC4)cc32)n1 [Example E51] , report its measured IC50.
≤ 1 µM

Suppose we examine the compound COc1nc(N2C[C@H]3C[C@@H]2CO3)cc(-n2ncc3cc(C)c(C4C5CN([C@H]6CCOC6)CC54)cc32)n1 (some centres unmarked) [Example E175] ; what IC50 value has been reported?
≤ 1 µM

// IC50 lookup, key: COc1nc(N2C[C@H]3C[C@@H]2CO3)cc(-n2ncc3ccc(OC4(C)CC4)cc32)n1 [Example E3]
≤ 1 µM

What does the record list as IC50 for COc1nc(N2C[C@@H]3C[C@H]2CO3)cc(-n2ncc3cc(C)c(C4CCN(CCF)CC4)cc32)n1 [Example E38] ?
≤ 1 µM

For the compound COc1nc(N2C[C@H]3C[C@@H]2CO3)cc(-n2ncc3cc(C)c(C4CCN(CCF)CC4)cc32)n1 [Example E37] , what IC50 is on record?
≤ 1 µM

# query: IC50 of entry COc1nc(N2C[C@@H]3C[C@H]2CO3)cc(-n2ncc3ccc(OC4(C)CC4)cc32)n1 [Example E4]
≤ 1 µM

Give the measured IC50 of COc1nc(N2C[C@H]3C[C@@H]2CO3)cc(-n2ncc3cc(C)c(C4CCN(CCC(=O)O)CC4F)cc32)n1 (single isomer, unassigned) [Example E158] .
≤ 0.01 µM
